TARGET OR TEST SYSTEM: UniProt P42685
Sequence (P42685 whole entry): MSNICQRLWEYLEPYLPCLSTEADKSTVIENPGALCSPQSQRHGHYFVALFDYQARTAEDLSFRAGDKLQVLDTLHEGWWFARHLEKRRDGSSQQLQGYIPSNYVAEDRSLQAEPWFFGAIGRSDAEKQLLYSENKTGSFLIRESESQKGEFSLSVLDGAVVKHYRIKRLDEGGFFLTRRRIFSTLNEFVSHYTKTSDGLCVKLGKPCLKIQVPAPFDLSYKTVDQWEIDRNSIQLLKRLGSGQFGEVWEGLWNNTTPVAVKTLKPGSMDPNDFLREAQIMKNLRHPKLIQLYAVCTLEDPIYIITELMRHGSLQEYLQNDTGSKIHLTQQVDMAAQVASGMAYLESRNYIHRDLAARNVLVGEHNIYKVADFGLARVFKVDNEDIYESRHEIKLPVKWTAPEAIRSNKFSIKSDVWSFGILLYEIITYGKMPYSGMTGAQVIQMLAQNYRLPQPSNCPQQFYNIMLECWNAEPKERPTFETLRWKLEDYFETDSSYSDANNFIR
PROTOCOL SUMMARY: Kinase panel profiling at 1 µmol/L (MSA or IMAP), percentage inhibition
Type: biochemical
TEST PARAMETERS: kinase FRK; 1 µmol/L single concentration; read-out: %-inhibition at 1 µmol/L, FRK
QUANTITY KIND: inhibition at 1 µM (%)
Numbers only here, please. The scale is %.

Data request: Return reported inhibition at 1 µM; argument: C[C@H](Nc1ncnc2nc[nH]c12)c1cc2cccc(Cl)c2c(=O)n1-c1ccccc1 [duvelisib]
Data returned: -2.26

Data request: Please report the recorded inhibition at 1 µM for Cn1cnc2c(F)c(Nc3ccc(Br)cc3Cl)c(C(=O)NOCCO)cc21 [selumetinib] .
Data returned: -3

Data request: Find the recorded inhibition at 1 µM belonging to Cc1cc(Nc2ncnc3ccc(NC4=NC(C)(C)CO4)cc23)ccc1Oc1ccn2ncnc2c1 [tucatinib] and report it.
Data returned: -2.17

Data request: Given the compound CCN1C(=O)N(c2c(F)c(OC)cc(OC)c2F)Cc2cnc3[nH]c(CN4CCOCC4)cc3c21 [pemigatinib] , what is its reported inhibition at 1 µM?
Data returned: 10

Data request: Name the reported inhibition at 1 µM value associated with the compound COc1cc2ncnc(Nc3ccc(F)c(Cl)c3)c2cc1NC(=O)/C=C/CN1CCCCC1 [dacomitinib]
Data returned: 70

Data request: Item under review: CN1CCN(c2ccc(C(=O)Nc3n[nH]c4ccc(Cc5cc(F)cc(F)c5)cc34)c(NC3CCOCC3)c2)CC1 [entrectinib] . Reported inhibition at 1 µM?
Data returned: 96

Data request: Fill in: inhibition at 1 µM of FC(F)(F)c1ccc(CNc2ccc(Cc3c[nH]c4ncc(Cl)cc34)cn2)cn1 [pexidartinib] is ___
Data returned: 5.44

Data request: Which inhibition at 1 µM is reported for this compound? CCc1nc(C(N)=O)c(Nc2ccc(N3CCC(N4CCN(C)CC4)CC3)c(OC)c2)nc1NC1CCOCC1 [gilteritinib]
Data returned: 95

---

System: 134 cancer cell lines
PROTOCOL SUMMARY: Cell viability assay (ATPlite, 72 hours), IC50 on cancer cell line panel
TEST PARAMETERS: Homo sapiens, C-33-A, read-out: IC50 in cell proliferation assay
QUANTITY KIND: IC50 (nM)
Entry rule: numbers only, all in nM.

Data request: Entry under review: COc1cc(N2CCC(N3CCN(C)CC3)CC2)ccc1Nc1ncc(Cl)c(Nc2ccccc2P(C)(C)=O)n1 [brigatinib] . Reported IC50?
Data returned: 527

Data request: Item CCN1C(=O)N(c2c(F)c(OC)cc(OC)c2F)Cc2cnc3[nH]c(CN4CCOCC4)cc3c21 [pemigatinib] has what recorded IC50?
Data returned: 2710

---

Tested on: 134 cancer cell lines
PROTOCOL SUMMARY: Cell viability assay (ATPlite, 72 hours), IC50 on cancer cell line panel
TEST PARAMETERS: Homo sapiens, LS174T, read-out: IC50 in cell proliferation assay, LS174T cell line
So I've got a bunch of molecules here, and I need their IC50 values.
Dear colleague, please return just the value in nM, with no unit written.

Data request: Fill in: IC50 of O=C(c1ccc(F)c(F)c1Nc1ccc(I)cc1F)N1CC(O)([C@@H]2CCCCN2)C1 [cobimetinib] is ___
Data returned: 25

Data request: Field request: IC50 | item: COC(=O)N[C@@H](C)CNc1nccc(-c2cn(C(C)C)nc2-c2cc(Cl)cc(NS(C)(=O)=O)c2F)n1 [encorafenib]
Data returned: 1700

Data request: IC50 lookup needed for CCc1nc(C(N)=O)c(Nc2ccc(N3CCC(N4CCN(C)CC4)CC3)c(OC)c2)nc1NC1CCOCC1 [gilteritinib] , thanks.
Data returned: 652

---

System: 134 cancer cell lines
PROTOCOL SUMMARY: Cell viability assay (ATPlite, 72 hours), IC50 on cancer cell line panel
TEST PARAMETERS: Homo sapiens, K562, read-out: IC50 in cell proliferation assay
Hi there, I'd appreciate the recorded IC50 for every entry that follows.

Data request: // map Cn1cc(-c2cc3c(N4CCN(c5ncc([C@@](C)(N)c6ccc(F)cc6)cn5)CC4)ncnn3c2)cn1 to recorded IC50 (system: 134 cancer cell lines)
Data returned: 6.03 µM

Data request: Entry C[C@H]1Oc2cc(cnc2N)-c2c(nn(C)c2C#N)CN(C)C(=O)c2ccc(F)cc21 , system 134 cancer cell lines: what IC50 was measured?
Data returned: 9.61 µM

Data request: Identify the measured IC50 of C[C@@H](Oc1cc(-c2cnn(C3CCNCC3)c2)cnc1N)c1c(Cl)ccc(F)c1Cl for 134 cancer cell lines.
Data returned: 0.285 µM

Data request: Field: IC50 (134 cancer cell lines). Entry: CC#CC(=O)N1CCC[C@H]1c1nc(-c2ccc(C(=O)Nc3ccccn3)cc2)c2c(N)nccn12
Data returned: > 31.6 µM

Data request: Identify the measured IC50 of C=CC(=O)N1CCC[C@@H](n2nc(-c3ccc(Oc4ccccc4)cc3)c3c(N)ncnc32)C1 for 134 cancer cell lines.
Data returned: 7.32 µM

---

Record form. Attribute: inhibition at 1 µM. Fill in for each entry.
TARGET OR TEST SYSTEM: panel of 255 wild-type kinases (Homo sapiens, UniProt P45984)
Sequence (P45984 whole entry): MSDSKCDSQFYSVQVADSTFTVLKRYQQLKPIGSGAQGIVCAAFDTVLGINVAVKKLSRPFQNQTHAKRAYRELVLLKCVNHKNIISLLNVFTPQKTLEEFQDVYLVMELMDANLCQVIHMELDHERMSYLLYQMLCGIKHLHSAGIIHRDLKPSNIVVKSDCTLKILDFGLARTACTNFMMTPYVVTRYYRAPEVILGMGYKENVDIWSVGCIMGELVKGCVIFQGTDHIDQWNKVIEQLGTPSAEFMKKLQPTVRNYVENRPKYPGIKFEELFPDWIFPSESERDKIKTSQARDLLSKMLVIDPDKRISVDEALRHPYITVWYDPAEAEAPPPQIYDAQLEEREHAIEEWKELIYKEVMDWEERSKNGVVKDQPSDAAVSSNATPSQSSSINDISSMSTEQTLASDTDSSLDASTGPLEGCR
PROTOCOL SUMMARY: Kinase panel profiling at 1 µmol/L (MSA or IMAP), percentage inhibition
Format: biochemical
TEST PARAMETERS: kinase JNK2; 1 µmol/L single concentration; read-out: %-inhibition at 1 µmol/L, JNK2
Report only the number, with the unit % understood.

Data request: Please report the recorded inhibition at 1 µM for O=C(Nc1cnn2ccc(N3CCC[C@@H]3c3cc(F)ccc3F)nc12)N1CC[C@H](O)C1 [larotrectinib] .
Data returned: -0.671

Data request: Which value of inhibition at 1 µM has been reported for CO[C@]1(C(=O)N[C@@H](C)c2ccc(-n3cc(F)cn3)nc2)CC[C@H](c2nc(C)cc(Nc3cc(C)[nH]n3)n2)CC1 [pralsetinib] in the records?
Data returned: 5

Data request: // lookup inhibition at 1 µM for Cc1cc(Nc2ncnc3ccc(NC4=NC(C)(C)CO4)cc23)ccc1Oc1ccn2ncnc2c1 [tucatinib]
Data returned: 1.47

Data request: Looking for the measured inhibition at 1 µM of FC(F)(F)c1ccc(CNc2ccc(Cc3c[nH]c4ncc(Cl)cc34)cn2)cn1 [pexidartinib] , can you help?
Data returned: 2.5

Data request: Query: inhibition at 1 µM; subject: C[C@H](Nc1ncnc2nc[nH]c12)c1cc2cccc(Cl)c2c(=O)n1-c1ccccc1 [duvelisib]
Data returned: 2

Data request: What measured inhibition at 1 µM goes with C=CC(=O)N1CCC([C@@H]2CCNc3c(C(N)=O)c(-c4ccc(Oc5ccccc5)cc4)nn32)CC1 [zanubrutinib] ?
Data returned: -1.18

Data request: So what's the measured inhibition at 1 µM for this one? COc1ccc(CN2C3CC2CN(c2ccc(-c4cc(OCC(C)(C)O)cn5ncc(C#N)c45)cn2)C3)cn1 [selpercatinib]
Data returned: -1.07

---

Exercise: state measured inhibition at 1 µM for each of the molecules provided.
TARGET OR TEST SYSTEM: UniProt Q13882
Sequence (Q13882 whole entry): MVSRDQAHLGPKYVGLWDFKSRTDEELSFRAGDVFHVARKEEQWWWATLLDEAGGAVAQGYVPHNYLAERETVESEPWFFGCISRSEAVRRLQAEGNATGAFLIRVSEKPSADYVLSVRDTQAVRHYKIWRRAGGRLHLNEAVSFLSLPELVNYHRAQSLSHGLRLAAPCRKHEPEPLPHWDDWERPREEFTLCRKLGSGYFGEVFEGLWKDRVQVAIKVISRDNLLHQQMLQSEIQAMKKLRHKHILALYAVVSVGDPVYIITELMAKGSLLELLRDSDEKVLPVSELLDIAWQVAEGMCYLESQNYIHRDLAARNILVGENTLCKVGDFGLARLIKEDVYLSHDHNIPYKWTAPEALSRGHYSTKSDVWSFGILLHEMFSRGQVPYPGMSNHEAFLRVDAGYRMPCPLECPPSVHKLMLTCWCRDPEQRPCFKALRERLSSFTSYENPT
PROTOCOL SUMMARY: Kinase panel profiling at 1 µmol/L (MSA or IMAP), percentage inhibition
Type: biochemical
TEST PARAMETERS: BRK kinase assay; 1 µmol/L single concentration; read-out: %-inhibition BRK
Only the number, expressed in %, is required.

Data request: I would be grateful if you could share the reported inhibition at 1 µM for C=CC(=O)N1CCC([C@@H]2CCNc3c(C(N)=O)c(-c4ccc(Oc5ccccc5)cc4)nn32)CC1 .
Data returned: 99

Data request: Can you share its inhibition at 1 µM? I mean this molecule: COc1cc2ncnc(Nc3ccc(F)c(Cl)c3)c2cc1NC(=O)/C=C/CN1CCCCC1
Data returned: 53

Data request: // returns reported inhibition at 1 µM for input C[C@H](Nc1ncnc2nc[nH]c12)c1cc2cccc(Cl)c2c(=O)n1-c1ccccc1
Data returned: 4.54

Data request: Give the measured inhibition at 1 µM of Cc1cc(Nc2ncnc3ccc(NC4=NC(C)(C)CO4)cc23)ccc1Oc1ccn2ncnc2c1 .
Data returned: 8

Data request: Looking for the measured inhibition at 1 µM of Cn1cnc2c(F)c(Nc3ccc(Br)cc3F)c(C(=O)NOCCO)cc21 , can you help?
Data returned: 1.08

Data request: What inhibition at 1 µM value was documented for this molecule, CCn1c(=O)c(-c2cc(NC(=O)Nc3ccccc3)c(F)cc2Br)cc2cnc(NC)cc21 ?
Data returned: 36

Data request: # get_value(readout='inhibition at 1 µM', item= COC(=O)N[C@@H](C)CNc1nccc(-c2cn(C(C)C)nc2-c2cc(Cl)cc(NS(C)(=O)=O)c2F)n1 )
Data returned: 25

Data request: Request the reported inhibition at 1 µM associated with FC(F)(F)c1ccc(CNc2ccc(Cc3c[nH]c4ncc(Cl)cc34)cn2)cn1
Data returned: 15
